testDescription: Clearance in mouse at 5 mg/kg, po
Type: ADME, organism-based
Set-up: dose 5 mg/kg, route oral
studyConditions: in vivo
reportedEndpoint: CL/F (mL/min/kg)
Answers are plain numbers, in mL/min/kg.

Entry OC[C@H]1C[C@@H](O)CCN1CCc1ccc(Nc2nc(-c3ccc(C(F)(F)F)cc3)cs2)cc1 ; CL/F = 11.7

---

Protein target, amino acids: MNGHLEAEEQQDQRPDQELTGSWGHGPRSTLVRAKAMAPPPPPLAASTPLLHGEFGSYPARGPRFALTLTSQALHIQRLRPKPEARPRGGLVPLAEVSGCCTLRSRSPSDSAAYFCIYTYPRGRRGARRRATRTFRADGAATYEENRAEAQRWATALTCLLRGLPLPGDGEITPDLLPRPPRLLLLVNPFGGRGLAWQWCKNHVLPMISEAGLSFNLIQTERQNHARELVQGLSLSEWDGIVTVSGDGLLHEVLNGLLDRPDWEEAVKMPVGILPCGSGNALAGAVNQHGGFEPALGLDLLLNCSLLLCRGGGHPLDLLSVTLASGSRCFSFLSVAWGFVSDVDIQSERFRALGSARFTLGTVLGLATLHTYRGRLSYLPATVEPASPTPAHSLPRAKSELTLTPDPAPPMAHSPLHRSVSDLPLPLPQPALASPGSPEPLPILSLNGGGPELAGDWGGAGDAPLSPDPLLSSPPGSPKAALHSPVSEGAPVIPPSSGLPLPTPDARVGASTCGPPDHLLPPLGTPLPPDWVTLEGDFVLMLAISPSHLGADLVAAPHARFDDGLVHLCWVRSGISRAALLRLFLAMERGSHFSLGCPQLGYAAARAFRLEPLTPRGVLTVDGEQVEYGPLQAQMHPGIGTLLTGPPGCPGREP
pIC50: −log10 of the molar value.
Criterion: pIC50 meeting or surpassing 6. Met: yes (1). Not met: no (0).

# molecule, answerLabel
records = [
    ("OCC1CCCCCN1CCc1ccc(Nc2nc(-c3ccc4ccccc4c3)cs2)cc1 (centres undefined)", "no (0)"),
    ("OC[C@H]1C[C@@H](O)CCN1CCCc1ccc(Nc2nc(-c3ccc(Cl)c(Cl)c3)cs2)cc1", "no (0)"),
    ("OCCC1CCCCN1CCc1ccc(Nc2nc(-c3ccc4ccccc4c3)cs2)cc1 (centres undefined)", "no (0)"),
    ("COC[C@H]1CCCN1CCc1ccc(Nc2nc(-c3ccc4ccccc4c3)cs2)cc1", "no (0)"),
    ("OC[C@H]1C[C@@H](O)CN1CCc1ccc(Nc2nc(-c3ccc(Cl)c(Cl)c3)cs2)cc1", "yes (1)"),
]

QUERY: Given O=S1(=O)CCN(CCc2ccc(Nc3nc(-c4ccc(Cl)c(Cl)c4)cs3)cc2)C(CO)C1 (centres undefined) , state whether its pIC50 is at least 6.
RESULT: no (0)

QUERY: Please check the record OC[C@H]1C[C@@H](O)CCN1CCc1ccc(Nc2nc(C3CCCC3)cs2)cc1 and state if its pIC50 is at or above 6.
RESULT: no (0)

QUERY: API: above_or_equal(metric=pIC50, cutoff=6) for item OC[C@H]1C[C@H](O)CN1CCc1ccc(Nc2nc(-c3ccc(Cl)c(Cl)c3)cs2)cc1
RESULT: yes (1)

---

testDescription: Clearance in rat at 0.5 mg/kg, iv
Type: ADME, organism-based
Set-up: dose 0.5 mg/kg, route intravenous
studyConditions: in vivo
Kindly state clearance for each of the entries shown.

Use the examples below as a reference point.
# smilesNotation, clearance
measured = [
    ("OC[C@H]1C[C@H](O)CN1CCCc1ccc(Nc2nc(-c3ccc(Cl)c(Cl)c3)cs2)cc1", "> 233 mL/min/kg"),
    ("OC[C@H]1C[C@@H](O)CCN1CCc1ccc(Nc2nc(-c3ccc(Cl)cc3Cl)cs2)cc1", "21.7 mL/min/kg"),
    ("OC[C@H]1C[C@H](O)CN1CCc1ccc(Nc2nc(-c3ccc(Cl)c(Cl)c3)cs2)cc1", "> 233 mL/min/kg"),
]

Report clearance for each item below.
1. OC[C@H]1C[C@@H](O)CCN1CCc1ccc(Nc2nc(-c3ccc(C(F)(F)F)cc3)cs2)cc1
2. OC[C@H]1C[C@@H](O)CN1CCc1ccc(Nc2nc(-c3ccc(Cl)c(Cl)c3)cs2)cc1
3. OC[C@H]1C[C@@H](O)CN1CCCc1ccc(Nc2nc(-c3ccc(Cl)c(Cl)c3)cs2)cc1

RESULT:
23.3 mL/min/kg
> 233 mL/min/kg
> 233 mL/min/kg

---

testDescription: Fraction unbound in human plasma by ultra-centrifugation method
Format: ADME, cell-free
Could you please report measured fraction unbound for the items listed next?

# smilesNotation, result
records = [
    ("OC[C@H]1C[C@@H](O)CCN1CCc1ccc(Nc2nc(-c3ccc(Cl)cc3Cl)cs2)cc1", 0.02),
]

Consider the additional compound presented here.
// fraction unbound value for OC[C@H]1C[C@@H](O)CCN1CCc1ccc(Nc2nc(-c3ccc(C(F)(F)F)cc3)cs2)cc1 : 0.04

---

Observed pIC50 for UniProtKB Q9NRA0, reported per entry below.
Give bare numbers, as −log10 of the molar value.

// each compound listed below needs its pIC50
1. OC[C@@H]1CCCN1CCc1ccc(Nc2nc(-c3ccc4ccccc4c3)cs2)cc1
2. OCC1CCN1CCc1ccc(Nc2nc(-c3ccc4ccccc4c3)cs2)cc1 (stereo unspecified)

RESULT:
[5.60, 5.60]

Value sought for every listed compound: pIC50.
1. OC[C@H]1C[C@H](O)CN1CCCc1ccc(Nc2nc(-c3ccc(Cl)c(Cl)c3)cs2)cc1
2. OC[C@H]1CCCN1CCc1ccc(Nc2nc(-c3ccc4ccccc4c3)cs2)cc1

RESULT:
1. 7.05
2. 5.57
